measured_on: CETP (Homo sapiens)
Sequence (P11597 18-493): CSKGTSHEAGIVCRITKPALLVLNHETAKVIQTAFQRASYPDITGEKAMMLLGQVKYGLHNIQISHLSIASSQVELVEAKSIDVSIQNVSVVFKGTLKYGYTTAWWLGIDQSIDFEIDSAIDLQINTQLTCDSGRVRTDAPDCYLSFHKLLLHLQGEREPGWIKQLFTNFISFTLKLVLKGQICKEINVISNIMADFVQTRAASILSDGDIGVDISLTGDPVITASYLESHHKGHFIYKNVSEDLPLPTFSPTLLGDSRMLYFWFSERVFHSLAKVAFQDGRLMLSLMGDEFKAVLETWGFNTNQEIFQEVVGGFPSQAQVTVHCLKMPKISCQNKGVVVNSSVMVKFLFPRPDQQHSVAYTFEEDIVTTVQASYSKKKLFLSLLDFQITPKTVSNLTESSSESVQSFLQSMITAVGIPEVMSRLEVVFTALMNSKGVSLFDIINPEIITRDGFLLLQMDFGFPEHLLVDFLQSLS
assay_remarks: In vitro CETP activity inhibitory effect in whole plasma
run_parameters: plasma from healthy subjects containing [3H]CE-HDL3, incubated 4 hours at 37° C.; read-out: CETP activity inhibition in whole plasma IC50
The entries below are paired with their reported IC50.
Dear colleague, please return just the value in µM, with no unit written.

In the examples that follow, each entry is paired with its recorded IC50.
GET /value?item= CC(C)CC1(C(=O)Nc2cc(Cl)c(Cl)cc2SC(=O)C(C)(C)C)CCCC1 [Example 66-49] &field=IC50 returns 40

The compound listed as CC(C)(C)C(=O)Nc1ccccc1CC(=O)Sc1ccccc1NC(=O)C1(C)CCCCC1 [Example 25-18] shows IC50 equal to 19

Value of IC50 reported for the compound CC1(C(=O)Nc2cc(Cl)ccc2SC(=O)Cc2ccccc2)CCCCC1 [Example 66-3] is 24

Field IC50 (entry CC(C)(C)C(=O)Nc1ccccc1SC(=O)Cc1cccc([N+](=O)[O-])c1 [Example 25-8] ) reads 25

More entries:
Measured IC50, CCCC1(C(=O)Nc2ccccc2S)CCCCC1 [Example 16] : 8

The recorded IC50 for entry CCCCC(=O)Nc1ccccc1SSc1ccccc1NC(=O)CCCC [Example 1-8] equals 21

Documented IC50 of CC1(C(=O)Nc2ccccc2SC(=O)Cc2ccc3ccccc3c2)CCCCC1 [Example 25-25] : 24

According to the records, this compound CC(C)(C)C(=O)Sc1cc(Cl)c(Cl)cc1NC(=O)C1CCC(C(C)(C)C)CC1 (centres unmarked) [Example 66-26] displays IC50 of 8

The reported value for CC(C)CCC1(C(=O)Nc2ccccc2SC(=O)COc2ccc(Cl)cc2)CCCCC1 [Example 41] in terms of IC50 is 7

Looking up CC(C)(C)C(=O)Sc1cc(Cl)c(Cl)cc1NC(=O)C1CCCCC1 [Example 66-25] , I see its IC50 listed as 19

For CC1(C(=O)Nc2cccc(CC(=O)Sc3ccccc3NC(=O)C3(C)CCCCC3)c2)CCCCC1 [Example 25-30] the compound record lists IC50 as 21

Entry CC(C)(C)C(=O)Sc1ccc(C(F)(F)F)cc1NC(=O)C1(C)CCCCC1 [Example 25-67] — recorded IC50 = 40

In plain terms, COCC(=O)Sc1cc(Cl)c(Cl)cc1NC(=O)C1(CCC(C)C)CCCCC1 [Example 25-86] has a documented IC50 of 10

Entry under test: CC1(C(=O)Nc2ccccc2SC(=O)Cc2ccccc2)CCCCC1 [Example 25-17] . Its IC50 was 23

Summary for this compound, COCC(=O)Sc1ccccc1NC(=O)C1(CCC(C)C)CCCCC1 [Example 37] : IC50 is 7

So for CC(=O)OC(C)(C)C(=O)Sc1ccccc1NC(=O)C1(CCC(C)C)CCCCC1 [Example 25-52] , the logged IC50 turned out to be 68

These entries and their values trace back to patent US9000045B2.
